Provide the reported kinase still bound, per cent of control of each item.
TARGET: PLK3 (human) (UniProt Q9H4B4)
Sequence (Q9H4B4 whole entry, looked up): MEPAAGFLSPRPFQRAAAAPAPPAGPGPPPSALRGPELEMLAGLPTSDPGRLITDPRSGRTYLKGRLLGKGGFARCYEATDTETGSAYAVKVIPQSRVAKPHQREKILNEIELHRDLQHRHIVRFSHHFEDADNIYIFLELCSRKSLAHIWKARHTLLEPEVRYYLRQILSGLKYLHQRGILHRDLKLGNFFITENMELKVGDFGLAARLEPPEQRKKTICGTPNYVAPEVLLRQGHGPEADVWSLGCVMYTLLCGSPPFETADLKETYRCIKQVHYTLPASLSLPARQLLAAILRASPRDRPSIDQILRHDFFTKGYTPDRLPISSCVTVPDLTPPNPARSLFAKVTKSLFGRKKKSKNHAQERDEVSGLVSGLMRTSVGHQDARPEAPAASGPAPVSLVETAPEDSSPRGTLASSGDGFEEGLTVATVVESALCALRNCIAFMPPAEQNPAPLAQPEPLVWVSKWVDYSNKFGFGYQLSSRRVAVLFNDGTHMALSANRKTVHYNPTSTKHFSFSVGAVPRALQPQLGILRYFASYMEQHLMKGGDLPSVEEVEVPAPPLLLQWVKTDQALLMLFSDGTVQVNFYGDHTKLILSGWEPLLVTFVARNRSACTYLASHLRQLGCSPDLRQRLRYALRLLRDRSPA
TEST: KINOMEscan competition binding
CONDITION_LABEL: compound 10.0 µM
Give bare numbers, in %.

Solved entries (count: 8):
MOLECULE: COc1cc(N2CCC(C)(O)CC2)ccc1Nc1ncc2c(n1)N(C1CCCC1)CCC(=O)N2C
TARGET: PLK3 (human) (UniProt Q9H4B4)
METRIC: kinase still bound, per cent of control
ENDPOINT_RESULT: 1.8

MOLECULE: CCOc1cc(N2CCC(O)CC2)ccc1Nc1ncc2c(n1)N(C1CCCC1)CCC(=O)N2C
TARGET: PLK3 (human) (UniProt Q9H4B4)
METRIC: kinase still bound, per cent of control
ENDPOINT_RESULT: 15

MOLECULE: CN1C(=O)[C@H]2CCC[C@H]2N(C2CCCC2)c2nc(Nc3ccc(C(N)=O)cc3)ncc21
TARGET: PLK3 (human) (UniProt Q9H4B4)
METRIC: kinase still bound, per cent of control
ENDPOINT_RESULT: 4.7

MOLECULE: COc1cc(N2CCC(N3CCN(C)CC3)CC2)ccc1Nc1ncc2c(n1)N1CCCC1CC(=O)N2C (stereo not drawn)
TARGET: PLK3 (human) (UniProt Q9H4B4)
METRIC: kinase still bound, per cent of control
ENDPOINT_RESULT: 0.95

MOLECULE: COc1cc(C(=O)NC2CCN(C)CC2)ccc1Nc1ncc2c(n1)N(C1CCCC1)CC(C)C(=O)N2C (stereo not drawn)
TARGET: PLK3 (human) (UniProt Q9H4B4)
METRIC: kinase still bound, per cent of control
ENDPOINT_RESULT: 2.8

MOLECULE: CN1C(=O)c2ccccc2N(C)c2nc(NS(=O)(=O)c3ccc(N)cc3)ncc21
TARGET: PLK3 (human) (UniProt Q9H4B4)
METRIC: kinase still bound, per cent of control
ENDPOINT_RESULT: 100

MOLECULE: COc1cc(N2CCN(CCO)CC2)ccc1Nc1ncc2c(n1)N(C1CCCC1)CCC(=O)N2C
TARGET: PLK3 (human) (UniProt Q9H4B4)
METRIC: kinase still bound, per cent of control
ENDPOINT_RESULT: 12

MOLECULE: N=C1NC(=O)/C(=C/c2ccc(-c3cncc4ccccc34)o2)S1
TARGET: PLK3 (human) (UniProt Q9H4B4)
METRIC: kinase still bound, per cent of control
ENDPOINT_RESULT: 16

Provide kinase still bound, per cent of control values for the following items, in order.
1. COc1cc(N2CCC(N3CCN(C)CC3)CC2)ccc1Nc1ncc2c(n1)N(C1CCCC1)C(C)CC(=O)N2C (stereo not drawn)
2. COc1cc(N2CCC(O)CC2)ccc1Nc1ncc2c(n1)N1CCc3cccc(c31)C(=O)N2C
3. CN1C(=O)[C@H]2CCC[C@H]2N(C2CCCC2)c2nc(Nc3ccc4ncccc4c3)ncc21
4. COc1cc(N2CCC(O)CC2)ccc1Nc1ncc2c(n1)N(C1CCCC1)CCC(=O)N2C
5. COc1cc(C(=O)NC2CCN(C)CC2)ccc1Nc1ncc2c(n1)N(C1CCCC1)[C@@H]1CCC[C@@H]1C(=O)N2C
6. COc1cc(N2CCN(C)CC2)ccc1Nc1ncc2c(n1)N1CCC[C@H]1CC(=O)N2C
7. COc1cc(N2CCN(C)CC2)ccc1Nc1ncc2c(n1)N(C1CCCC1)C(C)CC(=O)N2C (stereo not drawn)
8. CN1C(=O)c2ccccc2N(C)c2nc(Nc3ccc(N4CCC(O)CC4)cc3)ncc21

5.9
0.75
10
0
0
3.6
20
97

Provide kinase still bound, per cent of control values for the following items, in order.
1. COc1cc(N2CCC(N3CCN(C)CC3)CC2)ccc1Nc1ncc2c(n1)N(C1CCCC1)C(C)CC(=O)N2 (stereo not drawn)
2. COc1cc(N2CCN(C)CC2)ccc1Nc1ncc2c(n1)Nc1ccccc1NC2=O
3. COc1cc(N(C)CCCO)ccc1Nc1ncc2c(n1)N(C1CCCC1)CCC(=O)N2C
4. N=C1NC(=O)/C(=C/c2ccc(-c3cnc4ccccc4c3)o2)S1
5. COc1cc(N2CCC(O)CC2)ccc1Nc1ncc2c(n1)N(c1ccccc1)CCC(=O)N2C

26
83
0
29
21

Provide kinase still bound, per cent of control values for the following items, in order.
1. COc1cc(N2CCN(C)CC2)ccc1Nc1ncc2c(n1)N(C)c1sccc1C(=O)N2C
2. COc1cc(C(=O)NC2CCN(C)CC2)ccc1Nc1ncc2c(n1)N(C1CCCC1)C(C)CC(=O)N2C (stereo not drawn)

[22, 0]

Values compiled from the kinase profiling compilation of Christmann-Franck et al. (2016).
